- Experimental Protocol: label from the status in PepcDB records

| Ordered Residues | protein production |
| --- | --- |
| MSLNMFWFLPTHGDGHYLGTEEGSRPVDHGYLQQIAQAADRLGYTGVLIPTGRSCEDAWLVAASMIPVTQRLKFLVALRPSVTSPTVAARQAATLDRLSNGRALFNLVTGSDPQELAGDGVFLDHSERYEASAEFTQVWRRLLQRETVDFNGKHIHVRGAKLLFPAIQQPYPPLYFGGSSDVAQELAAEQVDLYLTWGEPPELVKEKIEQVRAKAAAHGRKIRFGIRLHVIVRETNDEAWQAAERLISHLDDETIAKAQAAFARTDSVGQQRMAALHNGKRDNLEISPNLWAGVGLVRGGAGTALVGDGPTVAARINEYAALGIDSFVLSGYPHLEEAYRVGELLFPLLDVAIPEIPQPQPLNPQGEAVANDFIPRKVAQS | not failed |
| MDIEERINLVLKKPTEEVLTVENLRHLFEIGAPLQHYIGFEISGYIHLGTGLMAGAKIADFQKAGIKTRVFLADWHSWINDKLGGDLEVIQEVALKYFKVGMEKSIEVMGGDPKKVEFVLASEILEKGDYWQTVIDISKNVTLSRVMRSITIMGRQMGEAIDFAKLIYPMMQVADIFYQGVTIAHAGMDQRKAHVIAIEVAQKLRYHPIVHEGEKLKPVAVHHHLLLGLQEPPKWPIESEEEFKEIKAQMKMSKSKPYSAVFIHDSPEEIRQKLRKAFCPAREVRYNPVLDWVEYIIFREEPTEFTVHRPAKFGGDVTYTTFEELKRDFAEGKLHPLDLKNAVAEYLINLLEPIRRYFEKHPEPLELMRSVKITR | not failed |

###

- Experimental Protocol: label from the status in PepcDB records
Value Kind: protein production

| Ordered Residues | Reported Measurement |
| --- | --- |
| MNADEFVEAFNNAKDLTELELLAELGKSISDDLEGHEKGKVLGTLGNIYYALHRLKEAEEAYLEALNVYLKLSEEDEGFLPYVVGCLYNLGNLYQVSRKFAEAEKAYTDALKVLGDVRNDQRLAILTALGTMYAKLDMKEHAERCLVEAFEMAKVKGDARLLGTLLNNLAVVYQRGGRKREAAMLLKMALDALERVGEDLGIAAVLQNLLPYLDEDELRRVMERLESFGELPIDLKAKIAYFKARRAEEKGEDSAKHYMEAACLGFMAYRNFGFQSINFMHCLDKVIESDSELREDAVVLKKVILKYYYGSQKVEIDFDSRVGRMIKAVLEGDDIYEDGILEDTVRLIAEDLLKAGTKV | failed |
| MILSIDSNDANTAPLHKKTISSLSGAVESMMKKLEDVGVLVARILMPILFITAGWGKITGYAGTQQYMEAMGVPGFMLPLVILLEFGGGLAILFGFLTRTTALFTAGFTLLTAFLFHSNFAEGVNSLMFMKNLTISGGFLLLAITGPGAYSIDRLLNKKW | failed |

###

- Experimental Protocol: label from the status in PepcDB records
Value Kind: protein production

Sample records with protein production:
| Ordered Residues | protein production |
| --- | --- |
| MRAQMKQYNCHEGALPFTKSYLLRPLFNAFLMSPKPFHTTEACIGCKKCEKVCPVGNITVTDRPVWGGNCTQCLACYHVCPVHAVEYLEHHHHHH | failed |
| MSLALQYFKALSDETRLRLIHVLNRHELSVNELVSILEMGQSRVSRHLKILTGAGLLTSRRDGLWVFYSAAAEGDGRAFLDAVTPFVTTDMVLQADLDMAQKIIEERALKTRQFFNAIAEDWDELNREVLGGFDLAGAVAEAMPQCETAVDLGCGTGSVIERMLQRSQQVIGVDGSPRMLELARRRFVEGAERVSLRIGELDHLPLRDGEADFASINMVLHHLSDPGVALGEIRRVLRLGGQLMVTDFDRHDNERMRSDYGDRWLGFEGVQLEGLLREAGFTVRECRRQGVAKGLALHLMLAEKTQQ | failed |
| AIAEHKEVVLLLLLFLKSGQGEPLDDYVNTQGPSLFSVTKKQLGAGSREECAAKCEEDKEFTCRAFQYHSKEQQCVIMAENRKSSIIIRMRDAVLFEK | not failed |
| MKTDIILAGVGGQGILSIAAAIGSAALTNNLYLKQAETHGMSQRGGDVQSFLRLSDAPIYSDLIPIGGADLILSVEPMEALRYLPYLKPDGYVVTNTVPFINIPNYPETTSVISKIESLPHHVLIDADSIARDEVGNVRASNFVMLGAASPFIEIPFDYLAGGIEAIFSRKGQEVVDMNLKALNAGREFALRYAAGK | not failed |
| MLKQRIITALLLVPVALYGVFMLPLWGFALFIQGVLMLGAWEWSPLMGVRRISARIAYTLFVGAIIGVLSWLAPYEHLWEGGELSKLIYYTILAGGVWWVVALAMIVNYPSSRRMWSRTRAIVGVFGLLIFIPTWAALVTVRSIDIDESRFFGGWVVLFILLLVWAADVGAYFAGVRYGRNKMMPAVSPGKTMEGLCGGVTLAFVVMMVVAHWTKVPADQFTGYYLTGLFTVVASVFGDLNESMFKRSAGVKDSGSILPGHGGILDRIDSLTAAVPIFTLAYLEFLH | failed |

get_value(item= "YANEEKGLEIAQERKARDEGWGDSIATMEMILKNAQGESSTRLMRLKSLEVEGDGDKGLTIFDQPRDVTGTAFLNHSHTIGADDQWLYLPALKRVKRISSRNKSGPFMGSEFAYEDLSSFEIEKYRFNHLKDEKFNGQDVFVLEQIPTDKNSGYTKQVVWLDKAHYRPLKVEFYDRKGALLKTLTFANYKQYLDKYWRAHTMAMTNHQTGKSTELNTSDLRFQTGLEENDFNKNVLKRVK" , readout=protein production) returns failed

Data point: "MSLDSALRSRIETLLHSNRVVLFMKGRPGMPQCGFSAKAAGILQALGVEYAHVNVLDDQEIREGIKRYGDWPTIPQLYIDGELIGGSDIVSQMYENGELSTLLGVAAPDLTPPSITITPTAVEMLKGTLANAPGSTLALSIDSRFQPTFELAPINTQAIAAEYNGLRVQFDLASARRAEGITIDWVDDIRGQGLVIDNPNAPQPIQELSPGDAAAQVDAGVLTLVDVRPADERAVASVAVPFRTMDGGERAVLEQLPKGTPLAFLCHHGGRSLQAAEHFRSLGFTSIYNIGGGIDAWSTQVDPGVPKY" ; protein production = failed

Entry "MSGGGVIRGPAGNNDCRIYVGNLPPDIRTKDIEDVFYKYGAIRDIDLKNRRGGPPFAFVEFEDPRDAEDAVYGRDGYDYDGYRLRVEFPRSGRGTG" — recorded protein production = not failed
